Tested on: Klebsiella pneumoniae
Details: Concentration 32 ug.mL-1;; ASSAY_TEST Inhibition of Bacterial Growth; detection method Absorption (OD600); MEDIA CAMHB; plate type 384well; NBS; CORNING #3640; time 18 hr
Description: Antibacterial activity against Klebsiella pneumoniae MDR ATCC 70063 (CO-ADD:GN_003); MIC in CAMBH media using NBS plates, by OD(600)
Potency and affinity values are given separately.
Task for the reader: assign each of the following compounds its reported Inhibition.
Note: unit % is implicit; provide only the numeric part.

Field Inhibition (entry CCOc1ccccc1CNC(=O)CCc1nnc2ccc(-c3ccccc3)nn12 ) reads 9.31

Field Inhibition (entry COc1ccc(NC(=O)CSc2nc3ccccc3n3c(C(C)C)nnc23)cc1Cl ) reads 5.17

Field Inhibition (entry O=C(Cn1nc2c3cc(-c4ccccc4)nn3ccn2c1=O)N1CCN(c2ccccc2F)CC1 ) reads 9.85

Field Inhibition (entry COc1cc(OC)c(NC(=O)Cn2nc3c4c5c(sc4ncn3c2=O)CC(C)CC5)cc1Cl (stereo unspecified) ) reads 11.66

Field Inhibition (entry COC(=O)c1ccc(NC(=O)Cn2nc3ccc(S(=O)(=O)C4CCCCC4)nn3c2=O)cc1 ) reads 9.79

Field Inhibition (entry Cc1ccc(NC(=O)Cn2nc3ccc(SC(C)(C)C)nn3c2=O)c(C)c1 ) reads 14.3

Field Inhibition (entry COc1cccc(CN(c2ccccc2)S(=O)(=O)c2ccc3nncn3c2)c1 ) reads 0.32

Field Inhibition (entry COc1cccc(CNC(=O)CSc2nnc3c4cc(-c5cc(C)ccc5C)nn4ccn23)c1OC ) reads 10.97

Field Inhibition (entry COc1cccc(-n2ccn3c(SCC(=O)NC(C)C)nnc3c2=O)c1 ) reads 10.83

Field Inhibition (entry Cc1c(Cl)cccc1-n1ccn2c(=S)[nH]nc2c1=O ) reads 8.12

Field Inhibition (entry Cc1cccc(C)c1NC(=O)Cn1nc2c(Sc3ccccc3)nccn2c1=O ) reads -1.09

Field Inhibition (entry Cc1nnc2c(=O)n(CC(=O)Nc3ccc(Cl)cc3)c3ccccc3n12 ) reads 4.43

Field Inhibition (entry COc1cccc(-n2ccn3c(SCC(=O)NCc4ccc(Cl)cc4)nnc3c2=O)c1 ) reads 6.58

Field Inhibition (entry CCc1nnc2c(SCC(=O)Nc3ccc4c(c3)OCCO4)nc3ccccc3n12 ) reads 7.64

Field Inhibition (entry COC(=O)c1ccc(NC(=O)Cn2c(=O)c3nnc(C(C)C)n3c3ccccc32)cc1 ) reads 11.69

Field Inhibition (entry COc1ccc(NC(=O)Cn2nc3c4cc(-c5cc(C)ccc5C)nn4ccn3c2=O)c(OC)c1 ) reads 9.51

Field Inhibition (entry O=C(Cn1nc2c(SC3CCCCC3)nccn2c1=O)Nc1cccc(Cl)c1 ) reads -2.02

Field Inhibition (entry COC(=O)c1cccc(NC(=O)Cn2nc3ccc(-c4ccccc4)nn3c2=O)c1 ) reads -4.82

Field Inhibition (entry Cc1nnc2c(=O)n(CC(=O)Nc3ccccc3Cl)c3ccccc3n12 ) reads 0.78

Field Inhibition (entry O=c1n(Cc2nc(-c3ccc(F)cc3)no2)nc2ccc(-c3ccccc3)nn12 ) reads 18.38

Field Inhibition (entry O=c1c2sccc2n2c(SCc3cccc(C(F)(F)F)c3)nnc2n1Cc1ccc(F)cc1 ) reads 10.74
